Quick reference for Kd among some binders
- Target Or Test System: T1, his-tagged human CDH6 extracellular region protein (hCDH6 ECD-his) (human, UniProt P55285 19-615)
- T1 construct: also called Human CDH6-his; hCDH6-his; not shown: his tag
- T1 sequence: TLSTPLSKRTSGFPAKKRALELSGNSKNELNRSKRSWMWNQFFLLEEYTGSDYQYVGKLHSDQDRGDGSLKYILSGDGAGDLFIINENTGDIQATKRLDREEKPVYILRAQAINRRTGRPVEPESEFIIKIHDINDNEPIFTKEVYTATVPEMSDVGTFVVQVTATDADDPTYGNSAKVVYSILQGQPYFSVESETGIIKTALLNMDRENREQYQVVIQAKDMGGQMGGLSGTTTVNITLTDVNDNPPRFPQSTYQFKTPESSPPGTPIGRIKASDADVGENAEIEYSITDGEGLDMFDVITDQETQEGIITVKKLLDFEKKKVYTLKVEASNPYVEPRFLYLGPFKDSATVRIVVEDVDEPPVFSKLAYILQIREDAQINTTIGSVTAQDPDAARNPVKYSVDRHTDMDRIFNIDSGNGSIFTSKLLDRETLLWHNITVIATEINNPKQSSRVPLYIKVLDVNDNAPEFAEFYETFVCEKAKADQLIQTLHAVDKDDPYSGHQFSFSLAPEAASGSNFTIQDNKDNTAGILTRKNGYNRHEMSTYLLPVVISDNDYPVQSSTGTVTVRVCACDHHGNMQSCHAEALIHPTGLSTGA
- Test Method Notes: SPR Biacore 8K, antibody captured on Protein A
- Experimental: The affinity of the antibody for the antigen was determined by a multi-cycle kinetic method using a BIAcore 8K instrument. […] The data were analyzed using Biacore 8K analysis software (version No. 2.0) based on the 1:1 binding model to fit the antibody-antigen binding kinetic parameters, including the association rate constant ka, the dissociation rate constant kd, and the equilibrium dissociation constant KD. […]
# output: bare number, implied unit nM

The examples below pair each entry with its known result.
[[record]]
binder = "CHI-CDH6-6 (antibody, human IgG1, kappa, V domains shown, also called CHI-hCDH6-6; chimeric antibody of murine CDH6-6) VH: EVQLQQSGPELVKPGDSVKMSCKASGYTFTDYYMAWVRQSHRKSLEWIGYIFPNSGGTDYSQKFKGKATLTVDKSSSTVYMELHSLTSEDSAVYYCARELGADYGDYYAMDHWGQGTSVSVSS VL: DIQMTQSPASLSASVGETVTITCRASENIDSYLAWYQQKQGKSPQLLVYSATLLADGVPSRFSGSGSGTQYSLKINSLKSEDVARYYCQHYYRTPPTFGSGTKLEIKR"
quantitative_readout = 58.6

[[record]]
binder = "CHI-CDH6-13 (antibody, human IgG1, kappa, V domains shown, also called chimeric antibody of murine CDH6-13) VH: DVQLQESGPGLVKPSQSLSLTCSVTGYSITKDSYWNWIRQFPGSKLEWMGFISYDGSRHYNPSLKNRISITRDTSKNQFFLQLNSVTTEDTATYYCARRDYADYWGQGTTLTVSS VL: QIVLTQSPALMSAFPGEKVTMTCSATSSVSYIYWYQQKPRSSPKPWIYLTSNLASGVPARFSGSGSGTSYSLTINSLEAEDAATYYCQQWSSIPYTFGGGTKLEIKR"
quantitative_readout = 78.1

[[record]]
binder = "NOV0712 (antibody, human IgG1, kappa, V domains shown, Positive control, variable regions from WO2018212136A1; also called positive control anti-human CDH6 antibody) VH: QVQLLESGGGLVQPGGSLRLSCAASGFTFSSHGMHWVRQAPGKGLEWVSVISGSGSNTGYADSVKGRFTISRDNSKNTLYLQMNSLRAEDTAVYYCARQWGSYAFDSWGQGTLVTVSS VL: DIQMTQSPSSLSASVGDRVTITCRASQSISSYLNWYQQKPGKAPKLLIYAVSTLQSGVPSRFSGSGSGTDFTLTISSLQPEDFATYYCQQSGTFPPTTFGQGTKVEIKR"
quantitative_readout = 53.5

[[record]]
binder = "CHI-CDH6-11 (antibody, human IgG1, kappa, V domains shown, also called chimeric antibody of murine CDH6-11) VH: QIQLQQSGPELVKPGASVRISCKASGYTFTDYYITWVKLRPGQGLEWIGWIYPGSVNIKYNEKFKGKATLTVDTSSSTAYMQLNSLTSEDSAVYFCARGGYSWFPYWGQGTLVTVSA VL: NIVMTQSPKSMSMSVGERVTLSCKASENVHTYVSWYQQKPEQSPKLLFYGASTRNTGVPDRFTGSGSATDFTLTISSVQAEDLADYYCGQSYSYPYTFGSGTKLEIKR"
quantitative_readout = 5.72


Now consider the entry below.
The binder identified as CHI-CDH6-2 (antibody, human IgG1, kappa, V domains shown, also called chimeric antibody of murine CDH6-2) VH: EVQLQQSGPELVKPGASVRISCKASGYTFTDYYMNWVKQSHGKSLEWIGDIDPNNANTTYNQKFKGKATLTVDKSSSTAYMELRSLTSEDSAVYSCASFGYDVEWFGYWGQGTLVTVSA VL: QIVLTQSPALMSASPGEKVTMTCSASSSVSYMYWYQQKPRSSPKPWIYLTSNLASGVPARFSGSGSGTSYSLTISSMEAEDAATYYCQQWSSNPFTFGSGTKLEIKR registered its Kd at 3.68
